System: L1210 leukemia ip in BDF1 mice, survival T/C
assay.explanation: NCI In Vivo Anticancer Drug Screen. Data for tumor model L1210 Leukemia (intraperitoneal) in B6D2F1 (BDF1) mice
condition.info: endpoint: mean survival time; dose: 50.0 mg/kg/injection; schedule: Q01DX001 (ip); vehicle: carboxymethylcellulose (CMC)
Toxic doses and inconclusive results are not listed. No stated cut-off is given here; in the data, active means T/C of 150% or more; inactive means T/C below 125%.
Pick one: 1 = active, 0 = inactive

| compound | study.system | answer.label |
| --- | --- | --- |
| c1nc2c([nH]1)CCCC2 | L1210 leukemia ip in BDF1 mice, survival T/C | 0 |

I would be grateful if you could indicate the recorded call for `O=S1(=O)/C(=C\C2CCCCC2)c2c1c(-c1ccccc1)c1ccccc1c2-c1ccccc1` . 0

I would be grateful if you could indicate the recorded call for `CN(C)c1ccc(/C=C\c2ccnc3ccccc23)cc1` . 0

I would be grateful if you could indicate the recorded call for `CNc1ncnc2[nH]ncc12` . 0

I would be grateful if you could indicate the recorded call for `NC(=O)c1ccccc1OC(=O)Nc1ccc(F)cc1` . 0

I would be grateful if you could indicate the recorded call for `S=C(N/N=C\c1ccc(Cl)cc1Cl)Nc1ccc2cn[nH]c2c1` . 0

I would be grateful if you could indicate the recorded call for `Cc1ccccc1C1=CCCCC1` . 0

I would be grateful if you could indicate the recorded call for C1=CC(c2ccccc2)=C(c2ccccc2)C(c2ccccc2)C(c2ccccc2)=C1 (configuration not stated) . 0

I would be grateful if you could indicate the recorded call for `CCOCCOCCCNCC(=O)N1CCN(C(=O)CNCCCOCCOCC)CC1` . 0

I would be grateful if you could indicate the recorded call for COC1=C2C=[N+](C)C3C(=C2C=CC1OC)Cc1cc2c(cc13)OCO2 (configuration not stated) . 0

I would be grateful if you could indicate the recorded call for `O=C(Nc1cccc(Cl)c1)Nc1ccc(Br)c(C(F)(F)F)c1` . 0

I would be grateful if you could indicate the recorded call for `CC[n+]1cccc(-c2ccc(NC(=O)/C=C/c3ccc(C(=O)Nc4ccc(-c5ccc[n+](CC)c5)cc4)cc3)cc2)c1` . 1

I would be grateful if you could indicate the recorded call for CC(=O)c1cccc(NC2C(N)C(NC(=O)N(C)C)(C(C)O)C(C)(O)C2(O)COC(=O)c2c(C)cccc2O)c1 (configuration not stated) . 0

I would be grateful if you could indicate the recorded call for OC1c2ccccc2C(O)C2C3C=CC(C3)C12 (configuration not stated) . 0

----------
Measured T/C of individual entries
Test system: L1210 leukemia ip in BDF1 mice, survival T/C
assay.explanation: NCI In Vivo Anticancer Drug Screen. Data for tumor model L1210 Leukemia (intraperitoneal) in B6D2F1 (BDF1) mice
condition.info: endpoint: mean survival time; dose: 400.0 mg/kg/injection; schedule: Q01DX001 (ip); vehicle: saline; higher = longer survival
Toxic doses and inconclusive results are not listed.

Some solved cases for reference:
| compound | T/C |
| --- | --- |
| COc1cc2c3c(c1O)C1(C=CC(=O)C=C1)CC3N(C)CC2 (configuration not stated) | 90 % of control |
| Nc1[nH]c(=O)[nH]c(=O)c1N=Nc1ccc(S(=O)(=O)Nc2nccs2)cc1 | 102 % of control |
| CC(=O)OC(C)COCc1ccccc1 (configuration not stated) | 100 % of control |
| CCCCC(=O)c1cc2ccccc2c2ccccc12 | 98 % of control |
| N#CCCCOc1cccc(N)c1 | 101 % of control |

Given the entry `CCCCCCCCCCCCOP(=O)(OCCCCCCCCCCCC)c1ccccc1` , report its measured T/C. 91 % of control

Given the entry `O=CN/N=C/c1c[nH]c(=O)[nH]c1=O` , report its measured T/C. 95 % of control

Given the entry `Nc1nc(N)c(N=Nc2ccc(SCC(=O)O)cc2)c(=O)[nH]1` , report its measured T/C. 96 % of control

Given the entry `COc1ccc2c(c1)c1c(C)c3cnccc3c(C)c1n2C` , report its measured T/C. 124 % of control

Given the entry `NC(=O)N/N=C/c1cc(=O)[nH]c(=O)[nH]1` , report its measured T/C. 97 % of control

Given the entry `CCCCC(=O)N/N=C/c1c(O)ccc2ccccc12` , report its measured T/C. 92 % of control

Given the entry `O=C(N/N=C/c1cccc([N+](=O)[O-])c1)c1cccc2ccccc12` , report its measured T/C. 95 % of control

----------
Test system: L1210 leukemia ip in BDF1 mice, survival T/C
assay.explanation: NCI In Vivo Anticancer Drug Screen. Data for tumor model L1210 Leukemia (intraperitoneal) in B6D2F1 (BDF1) mice
condition.info: endpoint: mean survival time; dose: 200.0 mg/kg/injection; schedule: Q01DX001 (ip); vehicle: saline with Tween-80; higher = longer survival
Toxic doses and inconclusive results are not listed.
metric: T/C

Some solved cases for reference:
| molecule | study.system | metric | assay.result |
| --- | --- | --- | --- |
| CCCSc1nccc2n[nH]nc12 | L1210 leukemia ip in BDF1 mice, survival T/C | T/C | 95 % of control |
| O=C1CCC23/C=C/C(=O)NCCCCNCCCNC(=O)/C=C/c4ccc(c2c4)OC3C1 (stereo unspecified) | L1210 leukemia ip in BDF1 mice, survival T/C | T/C | 95 % of control |
| Nc1ncnc(N)c1NC(=O)c1cc(Cl)c(OCc2ccccc2)c(Cl)c1 | L1210 leukemia ip in BDF1 mice, survival T/C | T/C | 96 % of control |
| CCC(CO)NC(=O)/C=C/c1ccc(Cl)cc1 (stereo unspecified) | L1210 leukemia ip in BDF1 mice, survival T/C | T/C | 100 % of control |
| COc1ccc(OC)c(/C=N/NC(=O)CCCCCCCCC(=O)N/N=C/c2cc(OC)ccc2OC)c1 | L1210 leukemia ip in BDF1 mice, survival T/C | T/C | 92 % of control |

Read the next record carefully.
Given the entry Cc1cc(C)c(NC(=S)NC(=O)C(C)Oc2ccccc2)c(C)c1 (stereo unspecified) , report its measured T/C. 97 % of control

----------
Test system: L1210 leukemia ip in BDF1 mice, survival T/C
assay.explanation: NCI In Vivo Anticancer Drug Screen. Data for tumor model L1210 Leukemia (intraperitoneal) in B6D2F1 (BDF1) mice
condition.info: endpoint: mean survival time; dose: 100.0 mg/kg/injection; schedule: Q01DX001 (ip); vehicle: Klucel (hydroxypropylcellulose) (HPC); higher = longer survival
Inconclusive results and toxic doses are left out.
metric: T/C

Some solved cases for reference:
| molecule | metric | assay.result |
| --- | --- | --- |
| COc1ccc(C23CCCC(=O)C2C2C(=O)CCCC23c2ccc(OC)cc2)cc1 (configuration not stated) | T/C | 100 % of control |
| O=C1CCNc2cc(Cl)ccc21 | T/C | 96 % of control |

Given the entry `Cc1ccc(C(=O)/C=C2/SS/C(=C/C(=O)c3ccc(C)cc3)S2)cc1` , report its measured T/C. 92 % of control

Given the entry `COC(=O)c1cccc(OC)c1-c1c(OC)cccc1C(=O)OC` , report its measured T/C. 105 % of control

Given the entry O=C(O)C1Nc2ccccc2NC1=O (configuration not stated) , report its measured T/C. 100 % of control

----------
Measured T/C of individual entries
Tested on: L1210 leukemia ip in BDF1 mice, survival T/C
assay.explanation: NCI In Vivo Anticancer Drug Screen. Data for tumor model L1210 Leukemia (intraperitoneal) in B6D2F1 (BDF1) mice
condition.info: endpoint: mean survival time; dose: 400.0 mg/kg/injection; schedule: Q04DX002 (ip); vehicle: Klucel (hydroxypropylcellulose) (HPC); higher = longer survival
Toxic doses and inconclusive results are not listed.

Some solved cases for reference:
| molecule | assay.result |
| --- | --- |
| Cc1ccc(-n2ccnc2)c(N=Cc2ccc(N(CCCl)CCCl)cc2C)c1 | 124 % of control |
| COC(=O)c1ccccc1NC(=O)Nc1cccc(C(F)(F)F)c1 | 105 % of control |
| CC(C)c1ccc(NC(=S)NCCO)cc1 | 105 % of control |
| Cc1cccc(NC(=O)Oc2ccc(-c3ccccc3)cc2)c1 | 88 % of control |
| CCCCCP(=S)(CCCC)CCCCC | 94 % of control |

Given the entry `COc1ccc(NC(=S)Nc2ccccc2)c(Cl)c1` , report its measured T/C. 108 % of control

Given the entry `CC(=O)Nc1ccc(O)c2ccccc12` , report its measured T/C. 99 % of control

Given the entry `O=C(COc1ccc(Cl)cc1Cl)Nc1c(Cl)cc(Cl)cc1Cl` , report its measured T/C. 86 % of control

Given the entry `CCSC1(SCC)C2(CCCCC2)C(=O)C12CCCCC2` , report its measured T/C. 96 % of control

Given the entry O=S(=O)(c1ccccc1)C1C2C=CC(O2)C1S(=O)(=O)c1ccccc1 (configuration not stated) , report its measured T/C. 93 % of control

Given the entry O=C1NC2C1C1c3ccccc3C2C12CC2 (configuration not stated) , report its measured T/C. 94 % of control

Given the entry `O=C(COc1ccc(Cl)c(Cl)c1)N(Cc1ccccc1)Cc1ccc[n+](Cc2ccc(Cl)cc2S(=O)(=O)F)c1` , report its measured T/C. 104 % of control
